- tested-target: TEAD3 (Homo sapiens, UniProt Q99594)
- Sequence (Q99594 whole entry, species assumed): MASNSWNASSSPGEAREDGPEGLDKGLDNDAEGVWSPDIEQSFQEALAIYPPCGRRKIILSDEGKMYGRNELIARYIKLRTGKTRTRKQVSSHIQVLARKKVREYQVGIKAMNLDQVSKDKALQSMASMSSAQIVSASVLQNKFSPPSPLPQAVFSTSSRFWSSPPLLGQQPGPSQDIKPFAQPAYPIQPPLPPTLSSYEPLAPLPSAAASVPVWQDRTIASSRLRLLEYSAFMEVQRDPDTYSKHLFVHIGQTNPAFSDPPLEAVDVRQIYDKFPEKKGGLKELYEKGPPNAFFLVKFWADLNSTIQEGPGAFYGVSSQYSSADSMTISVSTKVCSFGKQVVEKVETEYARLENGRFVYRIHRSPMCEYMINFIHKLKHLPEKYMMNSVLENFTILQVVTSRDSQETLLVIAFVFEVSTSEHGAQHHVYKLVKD
- method-notes: TEAD lipid assay (Lipid FP, Bodipy-C16 probe displacement)
- Type: binding
- condition-details: fluorescence polarization, His-tagged TEAD, 60 minutes incubation
measured-attribute: IC50
Reply with a number, then the unit it belongs to.

Please review the entries below; each comes with its answer.
>  <molecule>
COc1ccc(C(=O)NC(C)C)cc1/C=C/C1CCCCC1

>  <IC50>
1100 nM

$$$$
>  <molecule>
COc1ncc(NS(C)(=O)=O)cc1/C=C/C1CCC(F)(F)CC1

>  <IC50>
430 nM

$$$$
>  <molecule>
COc1ccc(NS(C)(=O)=O)cc1[C@H]1C[C@H](c2cccc(F)c2)C1 (single isomer, unassigned)

>  <IC50>
1400 nM

$$$$
>  <molecule>
COc1nc(F)c(NS(C)(=O)=O)cc1/C=C/CC1CCCC1

>  <IC50>
650 nM

$$$$
>  <molecule>
COc1ccc(C(=O)NC(C)C)cc1-c1ccc(C2CC2)cc1

>  <IC50>
1700 nM

$$$$

Query :: Which measured IC50 value corresponds to "COc1ccc(C(N)=O)cc1/C=C/Cc1ccccc1" ?
Result :: 1400 nM

Query :: Which measured IC50 value corresponds to "COc1ncc(NS(=O)(=O)CC(C)(C)C#N)cc1/C=C/C1CCC(F)(F)CC1" ?
Result :: 1100 nM

Query :: Which measured IC50 value corresponds to COc1ccc(NS(C)(=O)=O)cc1[C@H]1C[C@H](c2ccc(Cl)cc2)C1 (single isomer, unassigned) ?
Result :: 1700 nM

Query :: Which measured IC50 value corresponds to "COc1ncc(NS(C)(=O)=O)cc1/C=C/C1CC(C)(C)C1" ?
Result :: 1400 nM

Query :: Which measured IC50 value corresponds to "COc1cc(F)c(NS(=O)(=O)C2CC2)cc1-c1ccc(C(C)C)cc1" ?
Result :: 630 nM

Query :: Which measured IC50 value corresponds to "COc1ccc(NS(C)(=O)=O)cc1/C=C/C1CCC(C)(C)CC1" ?
Result :: 770 nM

Query :: Which measured IC50 value corresponds to "Cc1cn(Cc2ccc(Cl)cc2)c2cc(NS(C)(=O)=O)ccc12" ?
Result :: 1300 nM

---

- tested-target: TEAD1 (Homo sapiens)
- Sequence (P28347 whole entry, species assumed): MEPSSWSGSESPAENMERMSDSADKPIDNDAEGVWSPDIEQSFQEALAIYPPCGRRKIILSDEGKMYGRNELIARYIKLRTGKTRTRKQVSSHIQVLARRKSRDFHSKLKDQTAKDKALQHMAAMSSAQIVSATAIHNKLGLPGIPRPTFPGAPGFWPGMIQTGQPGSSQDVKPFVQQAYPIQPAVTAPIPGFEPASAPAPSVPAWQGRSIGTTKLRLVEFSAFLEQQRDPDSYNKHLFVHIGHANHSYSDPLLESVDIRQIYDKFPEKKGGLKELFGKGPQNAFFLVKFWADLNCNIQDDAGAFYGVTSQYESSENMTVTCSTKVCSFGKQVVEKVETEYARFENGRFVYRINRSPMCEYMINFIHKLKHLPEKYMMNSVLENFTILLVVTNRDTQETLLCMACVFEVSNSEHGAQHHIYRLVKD
Reported IC50 by item:
Reply with a number, then the unit it belongs to.

Please review the entries below; each comes with its answer.
>  <compound>
CNC(=O)Cc1cccc(CNC(=O)c2cnc(OC)c(/C=C/[C@H]3CC[C@@H](C(F)(F)F)CC3)c2)c1 [Compound 56A]

>  <experimental-result>
708 nM

$$$$
>  <compound>
CNC(=O)Cc1cccc(CNC(=O)c2cc(/C=C/[C@H]3CC[C@H](C(F)(F)F)CC3)c(OC)cn2)c1 [Compound 57B]

>  <experimental-result>
128 nM

$$$$
>  <compound>
CNC(=O)Cc1cccc(CNC(=O)c2cnc(OC)c(/C=C/[C@H]3CC[C@H](C(F)(F)F)CC3)c2)c1 [Compound 56B]

>  <experimental-result>
193 nM

$$$$

Please examine the following record next.
Query :: // lookup IC50 | system=TEAD1 (Homo sapiens) | key= CNC(=O)Cc1cccc(CNC(=O)c2cc(/C=C/[C@H]3CC[C@@H](C(F)(F)F)CC3)c(OC)cn2)c1 [Compound 57A]
Result :: 389 nM
